Each recorded value in this set is attributed to ChEMBL document CHEMBL2439969.

target: UniProt:P49146; experiment: Displacement of Cy5-pNPY from human Y2 receptor expressed in CHO cells after 90 to 120 mins by flow cytometry; type: cell-based
Residues, ends and D or L forms follow the SMILES beside them.
property.label: Ki (µM)

1. CCCC[C@H](NC(=O)[C@H](CC(N)=O)NC(=O)[C@@H](NC(=O)[C@H](Cc1ccc(O)cc1)NC(=O)[C@H](CCCNC(=N)N)NC(=O)[C@H](CCCNC(=N)N)NC(C)=O)[C@@H](C)CC)C(=O)N[C@@H](CC(C)C)C(=O)N[C@H](C(=O)N[C@@H](CCCNC(=N)N)C(=O)N[C@H]1CCC[C@H]1C(=O)N[C@@H](CCCNC(=N)N)C(=O)N[C@@H](Cc1ccc(O)cc1)C(N)=O)[C@@H](C)O (HELM PEPTIDE1{[ac].R.R.Y.I.N.[Nle].L.T.R.[O=C([C@@H]1CCC[C@@H]1N[*:1])[*:2]].R.Y.[am]}$$$$V2.0)	0.217

---

target: Neuropeptide Y receptor type 2 (Homo sapiens); experiment: Displacement of Cy5-pNPY from human Y2 receptor expressed in CHO cells after 90 to 120 mins by flow cytometry; format: cell-based
Sequence (P49146 whole entry): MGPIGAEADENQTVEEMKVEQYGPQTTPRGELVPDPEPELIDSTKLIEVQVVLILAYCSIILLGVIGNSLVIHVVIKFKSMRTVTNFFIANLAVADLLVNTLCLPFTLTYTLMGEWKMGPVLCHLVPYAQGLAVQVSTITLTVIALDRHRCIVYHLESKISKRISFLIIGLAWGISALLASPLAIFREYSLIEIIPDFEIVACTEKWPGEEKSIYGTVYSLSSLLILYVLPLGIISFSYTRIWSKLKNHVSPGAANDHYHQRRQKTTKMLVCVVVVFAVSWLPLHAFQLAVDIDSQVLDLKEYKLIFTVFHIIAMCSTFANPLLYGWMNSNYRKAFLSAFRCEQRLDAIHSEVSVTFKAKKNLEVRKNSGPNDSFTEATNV
Residues, ends and D or L forms follow the SMILES beside them.
property.label: Ki

1) CC[C@H](C)[C@H](NC(=O)[C@H](Cc1ccc(O)cc1)NC(=O)[C@H](Cc1cnc[nH]1)NC(=O)[C@H](CCCNC(=N)N)NC(C)=O)C(=O)N[C@@H](CC(N)=O)C(=O)N[C@@H](CC(C)C)C(=O)N[C@H](C(=O)N[C@H](C(=O)N[C@@H](CCCNC(=N)N)C(=O)N[C@H]1CC[C@H]1C(=O)N[C@@H](CCCNC(=N)N)C(=O)N[C@@H](Cc1ccc(O)cc1)C(N)=O)[C@@H](C)O)[C@@H](C)CC (HELM PEPTIDE1{[ac].R.H.Y.I.N.L.I.T.R.[O=C([C@@H]1CC[C@@H]1N[*:1])[*:2]].R.Y.[am]}$$$$V2.0)	> 1000 nM
2) CC[C@H](C)[C@H](NC(=O)[C@H](Cc1ccc(O)cc1)NC(=O)[C@H](Cc1cnc[nH]1)NC(=O)[C@H](CCCNC(=N)N)NC(C)=O)C(=O)N[C@@H](CC(N)=O)C(=O)N[C@@H](CC(C)C)C(=O)N[C@H](C(=O)N[C@H](C(=O)N[C@@H](CCCNC(=N)N)C(=O)N[C@H]1C[C@@H](C(=O)N[C@@H](CCCNC(=N)N)C(=O)N[C@@H](Cc2ccc(O)cc2)C(N)=O)C1(C)C)[C@@H](C)O)[C@@H](C)CC (HELM PEPTIDE1{[ac].R.H.Y.I.N.L.I.T.R.[CC1(C)[C@@H](N[*:1])C[C@H]1C(=O)[*:2]].R.Y.[am]}$$$$V2.0)	> 1000 nM
3) CC(=O)N[C@H](C(=O)N[C@@H](CCCNC(=N)N)C(=O)N[C@H]1CCC[C@H]1C(=O)N[C@@H](CCCNC(=N)N)C(=O)N[C@@H](Cc1ccc(O)cc1)C(N)=O)[C@@H](C)O (HELM PEPTIDE1{[ac].T.R.[O=C([C@@H]1CCC[C@@H]1N[*:1])[*:2]].R.Y.[am]}$$$$V2.0)	> 1000 nM
4) CC[C@H](C)[C@H](NC(=O)[C@H](Cc1ccc(O)cc1)NC(=O)[C@H](CCCNC(=N)N)NC(=O)[C@H](CCCNC(=N)N)NC(C)=O)C(=O)N[C@@H](CC(N)=O)C(=O)N[C@@H](CC(N)=O)C(=O)N[C@@H](CC(C)C)C(=O)N[C@H](C(=O)N[C@@H](CCCNC(=N)N)C(=O)N[C@H]1CC[C@H]1C(=O)N[C@@H](CCCNC(=N)N)C(=O)N[C@@H](Cc1ccc(O)cc1)C(N)=O)[C@@H](C)O (HELM PEPTIDE1{[ac].R.R.Y.I.N.N.L.T.R.[O=C([C@@H]1CC[C@@H]1N[*:1])[*:2]].R.Y.[am]}$$$$V2.0)	> 1000 nM
